The values you see were collected from ChEMBL document CHEMBL6182900.

molecular target: Cytochrome P450 2C19 (Homo sapiens)
Sequence (P33261 whole entry): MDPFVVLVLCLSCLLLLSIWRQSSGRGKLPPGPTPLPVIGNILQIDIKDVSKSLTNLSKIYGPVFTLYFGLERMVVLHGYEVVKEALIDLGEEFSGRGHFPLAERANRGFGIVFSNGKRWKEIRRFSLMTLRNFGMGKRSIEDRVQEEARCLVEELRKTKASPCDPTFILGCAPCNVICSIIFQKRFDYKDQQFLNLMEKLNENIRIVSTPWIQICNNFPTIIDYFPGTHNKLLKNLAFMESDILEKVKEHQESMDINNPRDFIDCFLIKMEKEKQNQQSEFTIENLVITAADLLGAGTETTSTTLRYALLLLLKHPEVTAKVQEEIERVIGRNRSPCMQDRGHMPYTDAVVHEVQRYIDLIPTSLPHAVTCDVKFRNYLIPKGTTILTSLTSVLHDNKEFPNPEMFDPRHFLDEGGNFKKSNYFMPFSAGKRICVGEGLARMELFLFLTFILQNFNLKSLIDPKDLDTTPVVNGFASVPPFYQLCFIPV
metric name: pIC50
Answers are plain numbers, as −log10 of the molar value.

Exercise: Need pIC50, item `CNC(=O)c1ccccc1Nc1nc(Nc2ccc(OCCF)cc2)ncc1Br`
Solution: 4.44

---

biological target: Cytochrome P450 3A4 (Homo sapiens)
Sequence (P08684 whole entry): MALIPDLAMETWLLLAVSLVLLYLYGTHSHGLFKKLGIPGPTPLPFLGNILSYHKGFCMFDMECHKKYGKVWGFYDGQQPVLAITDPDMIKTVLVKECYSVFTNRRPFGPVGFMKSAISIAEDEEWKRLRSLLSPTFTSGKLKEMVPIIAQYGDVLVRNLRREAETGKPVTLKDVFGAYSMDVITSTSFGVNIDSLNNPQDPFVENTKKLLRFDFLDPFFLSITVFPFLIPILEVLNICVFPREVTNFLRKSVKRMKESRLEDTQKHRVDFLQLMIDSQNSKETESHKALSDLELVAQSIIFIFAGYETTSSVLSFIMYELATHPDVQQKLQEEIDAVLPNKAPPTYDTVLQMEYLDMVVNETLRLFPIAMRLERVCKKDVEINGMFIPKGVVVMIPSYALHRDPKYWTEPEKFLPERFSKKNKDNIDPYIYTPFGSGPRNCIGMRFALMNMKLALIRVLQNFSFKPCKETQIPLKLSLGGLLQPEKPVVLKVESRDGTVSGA
metric name: IC50

Exercise: Enter reported IC50 observed with Cytochrome P450 3A4 (Homo sapiens) for `CNC(=O)c1ccccc1Nc1nc(Nc2ccc(OCCF)cc2)ncc1Br`
Solution: > 50 µM

---

biological target: Cytochrome P450 2C9 (Homo sapiens, UniProt P11712)
Sequence (P11712 whole entry): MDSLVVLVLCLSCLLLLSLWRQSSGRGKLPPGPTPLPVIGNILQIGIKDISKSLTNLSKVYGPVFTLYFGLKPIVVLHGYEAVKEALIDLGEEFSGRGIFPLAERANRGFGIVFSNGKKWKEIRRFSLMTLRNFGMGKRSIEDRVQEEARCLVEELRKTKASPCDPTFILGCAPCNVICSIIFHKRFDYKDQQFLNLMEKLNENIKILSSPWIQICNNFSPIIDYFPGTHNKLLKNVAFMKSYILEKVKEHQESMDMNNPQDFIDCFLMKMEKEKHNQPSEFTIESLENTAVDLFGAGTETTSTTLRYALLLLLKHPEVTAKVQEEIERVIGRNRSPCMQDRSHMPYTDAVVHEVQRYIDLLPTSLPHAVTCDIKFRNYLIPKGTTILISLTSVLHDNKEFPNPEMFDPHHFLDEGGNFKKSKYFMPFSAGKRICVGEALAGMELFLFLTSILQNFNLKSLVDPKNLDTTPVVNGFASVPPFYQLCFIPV
metric name: IC50
Answer with the number, then the unit.

Exercise: Need IC50, item `CNC(=O)c1ccccc1Nc1nc(Nc2ccc(OCCF)cc2)ncc1Br`
Solution: 22.5 µM

---

experiment: in vitro; details: human, liver microsomes
Description: Metabolic stability in human liver microsomes assessed as intrinsic clearance preincubated for 5 mins followed by NADPH addition and measured after 60 mins by LC-MS/MS analysis
metric name: microsomal CLint at 1 h (µL/min/mg)
Give bare numbers, in µL/min/mg.

Exercise: Need microsomal CLint at 1 h, item `O=C(O)Cc1ccccc1Nc1c(Cl)cccc1Cl`
Solution: 232
